Reference source for all entries: patent US4351948A

test: in vivo; conditions: mouse, in vivo, ip, male mice, 7 day; read-out: LD50
Counter-ions that a name gives are not always drawn.
measurement-label: LD50 at 168 h (mg/kg)

1. Clc1ccc(/C(Cn2ccnc2)=N/Nc2c(Cl)cccc2Cl)cc1 [HC344, hydrochloride]: 780
2. Clc1ccc(/C(Cn2ccnc2)=N/Nc2c(Cl)cccc2Cl)s1 [HC390, hydrochloride]: 610
